Test system: MDCK
Assay: Cellular uptake in methicillin-sensitive Staphylococcus aureus ATCC 25923 phagocytized in wild type MDCK cells assessed as apparent cellular to extracellular concentration ratio at 250 mg/liter after 24 hrs by fluorimetry in presence of 1 uM ouabain
Format: ADME, cell-based, Canis lupus familiaris
Settings: dog
MEASUREMENT KIND: Ratio
Reply briefly: the number, and no unit.

Entry "CCCCCCCCCC(=O)N[C@@H](Cc1c[nH]c2ccccc12)C(=O)N[C@H](CC(N)=O)C(=O)N[C@@H](CC(=O)O)C(=O)N[C@@H]1C(=O)NCC(=O)N[C@@H](CCCN)C(=O)N[C@@H](CC(=O)O)C(=O)N[C@H](C)C(=O)N[C@@H](CC(=O)O)C(=O)NCC(=O)N[C@H](CO)C(=O)N[C@@H]([C@H](C)CC(=O)O)C(=O)N[C@@H](CC(=O)c2ccccc2N)C(=O)O[C@@H]1C" has what Ratio?
0.04

Origin of values: ChEMBL document CHEMBL1155173
